This collection of values is drawn from patent US12391679B2.

Target: SIK3 (Homo sapiens)
Construct: purchased SignalChem S12-11G-100
Sequence (Q9Y2K2 59-365 limits assumed): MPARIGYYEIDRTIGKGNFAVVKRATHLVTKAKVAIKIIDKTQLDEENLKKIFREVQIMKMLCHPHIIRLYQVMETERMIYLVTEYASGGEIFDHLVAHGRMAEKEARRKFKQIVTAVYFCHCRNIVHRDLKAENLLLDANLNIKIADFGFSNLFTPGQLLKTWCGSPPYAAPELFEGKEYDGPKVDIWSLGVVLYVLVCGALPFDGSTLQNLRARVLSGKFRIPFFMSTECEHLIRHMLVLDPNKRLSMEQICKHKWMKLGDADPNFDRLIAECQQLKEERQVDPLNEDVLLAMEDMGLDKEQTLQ
Assay: ADP-Glo kinase assay, SIK3
Format: biochemical
pIC50: −log10 of the molar value.
Value type: pIC50

| Molecule | pIC50 |
| --- | --- |
| COc1cc(-c2cnc3cc(C4(C)COCCO4)ccn23)cc(OC(F)F)c1C(=O)NC1CC1 (centres unmarked) | 7.00 to 8.00 |
| COc1cc(-c2cnc3cc(C4CCCNC4)ccn23)cc(OC(F)F)c1C(=O)NC1CC1 (centres unmarked) | 8.00 to 11.00 |
| COc1cc(-c2cnc3cc(C(C)(C)C#N)ccn23)cc(OC(F)F)c1C(=O)NCC1COC1 | 7.00 to 8.00 |
| COc1cc(-c2cnc3cc(C(C)(C)C#N)ccn23)cc(OC)c1C(=O)NC1CC1 | 7.00 to 8.00 |
| COc1cc(-c2cnc3cc(C4CCCN4C(C)C)ccn23)cc(OC(F)F)c1C(=O)NC1CC1 (centres unmarked) | 7.00 to 8.00 |

For this molecule ( COc1cc(-c2cnc3cc(C4(C#N)COC4)ccn23)cc(OC(F)F)c1C(=O)N[C@@H]1C[C@@H]1F ), measured pIC50 is 8.00 to 11.00

For this molecule ( CNC(=O)C1(c2ccc3c(-c4cc(OC)c(C(=O)N[C@@H]5C[C@@H]5F)c(OC(F)F)c4)cnn3c2)CCC1 ), measured pIC50 is 7.00 to 8.00

For this molecule ( COc1cc(-c2cnc3cc(C(C)(C)OC)ncn23)cc(OC(F)F)c1C(=O)NC1CC1 ), measured pIC50 is 7.00 to 8.00

----------
Molecular target: SIK3 (Homo sapiens)
Construct: purchased SignalChem S12-11G-100
Assay: ADP-Glo kinase assay, SIK3
Type: biochemical
Description: The ADP-Glo™ kinase assay is a luminescent technology assay which measures the ADP formed from a kinase reaction. […] In a second step the kinase reactions are terminated and all the remaining ATP is depleted. In a final step the ADP is converted into ATP and this newly synthesized ATP is measured by using a luciferase/luciferin reaction. The generated light is measured using an Envision plate reader, wherein the luminescent signal obtained positively correlates with the kinase activity. […]
pIC50: −log10 of the molar value.
Value type: pIC50

For this molecule ( COc1cc(-c2cnc3cc(C(C)(C)C#N)ccn23)cc(OC(F)F)c1C(=O)NCc1ccn(C)n1 [Cpd 52] ), measured pIC50 is < 6.30

For this molecule ( COc1cc(-c2cnc3cc(C4(F)COC4)ccn23)cc(OC(F)F)c1C(=O)NC1CC1 [Cpd 207] ), measured pIC50 is 8.00 to 11.00

For this molecule ( CCC(O)C(C)(C)c1ccn2c(-c3cc(OC)c(C(=O)NC4CC4)c(OC(F)F)c3)cnc2c1 (stereo not shown) [Cpd 201] ), measured pIC50 is 7.00 to 8.00

For this molecule ( COc1cn2c(-c3cc(OC)c(C(=O)NC4CC4)c(OC(F)F)c3)cnc2cc1C1COC1 [Cpd 215] ), measured pIC50 is 7.00 to 8.00

For this molecule ( COc1cc(-c2cnn3cc(C4(C#N)CCOCC4)ccc23)cc(OC(F)F)c1C(=O)N[C@@H]1C[C@@H]1F [Cpd 243] ), measured pIC50 is 8.00 to 11.00

For this molecule ( COc1cc(-c2cnc3cc(C4(C#N)COC4)ccn23)cc(OC(F)F)c1C(=O)NC1CC1 [Cpd 117] ), measured pIC50 is 8.00 to 11.00

For this molecule ( COc1cc(-c2cnc3cc(C4CCCN4)ccn23)cc(OC(F)F)c1C(=O)NC1CC1 (stereo not shown) [Cpd 188] ), measured pIC50 is 7.00 to 8.00

For this molecule ( COc1cc(-c2cnc3cc(C(C)O)ccn23)cc(OC)c1C(=O)NCC(F)(F)F (stereo not shown) [Cpd 54] ), measured pIC50 is 7.00 to 8.00

----------
Tested on: LPS triggered IL-10 secretion in monocytes
Assay: Monocytes assay: LPS-triggered IL-10 (ELISA)
Format: cell-based, human
Conditions: Homo sapiens, Monocyte, LPS-triggered IL-10 induction, median maximal fold change vs LPS only, read-out: IL-10 FCmax median
Value type: maximal fold induction

| Compound | maximal fold induction |
| --- | --- |
| COc1cc(-c2cnn3cc(C(C)(C)CO)ccc23)cc(OC(F)F)c1C(=O)N[C@@H]1C[C@@H]1F [Cpd 242] | < 1.5 |
| COc1cc(-c2cnc3cc(C(C)(C)C#N)cnn23)cc(OC(F)F)c1C(=O)N[C@@H]1C[C@@H]1F [Cpd 228] | < 1.5 |
| COc1cc(-c2cnc3cc(C4(C#N)CCOCC4)ccn23)cc(OC(F)F)c1C(=O)NC1CC1 [Cpd 116] | 1.5 to 4.5 |
| COc1cc(-c2cnc3cc(C4(C#N)COC4)ccn23)cc(OC(F)F)c1C(=O)N[C@@H]1C[C@@H]1F [Cpd 130] | 1.5 to 4.5 |
| COc1cc(-c2cnn3cc(C(C)(C)C#N)ccc23)cc(OC(F)F)c1C(=O)NC1CC1 [Cpd 208] | < 1.5 |
| COCC(C)(C)c1ccc2c(-c3cc(OC)c(C(=O)NC4CC4)c(OC(F)F)c3)cnn2c1 [Cpd 238] | < 1.5 |
| COc1cc(-c2cnc3cc(C(C)(O)Cn4ccnc4)ccn23)cc(OC(F)F)c1C(=O)NC1CC1 (stereo not drawn) [Cpd 181] | < 1.5 |
| COc1cc(-c2cnn3cc(C(C)(C)C#N)ccc23)cc(OC(F)F)c1C(=O)N[C@@H]1C[C@H]1F (single isomer, unassigned) [Cpd 257] | 1.5 to 4.5 |
| COc1cc(-c2cnn3cc(C4(N)CCC4)ccc23)cc(OC(F)F)c1C(=O)N[C@@H]1C[C@@H]1F [Cpd 261] | < 1.5 |
| COc1cc(-c2cnc3cc(C4(O)CCOCC4)ccn23)cc(OC(F)F)c1C(=O)NC1CC1 [Cpd 170] | 1.5 to 4.5 |

For this compound ( COCC(C)(O)c1ccn2c(-c3cc(OC)c(C(=O)NC4CC4)c(OC(F)F)c3)cnc2c1 (stereo not drawn) [Cpd 182] ), measured maximal fold induction is < 1.5

For this compound ( COc1cc(-c2cnn3cc(C(C)(C)C#N)ccc23)cc(OC(F)F)c1C(=O)N[C@@H]1C[C@@H]1F [Cpd 219] ), measured maximal fold induction is < 1.5

For this compound ( COc1cc(-c2cnn3cc(C(C)(C)C#N)ccc23)cc(OC)c1C(=O)N[C@@H]1C[C@@H]1F [Cpd 245] ), measured maximal fold induction is < 1.5

For this compound ( COc1cc(-c2cnc3cc(C4CCOCC4)c(OCCO)cn23)cc(OC(F)F)c1C(=O)NC1CC1 [Cpd 183] ), measured maximal fold induction is < 1.5

For this compound ( COc1cc(-c2cnn3cc(C(C)(C)C#N)ccc23)cc(OC(F)F)c1C(=O)N[C@@H]1C[C@@H]1F (racemic) [Cpd 233] ), measured maximal fold induction is < 1.5

----------
Target: SIK2 (Homo sapiens, UniProt Q9H0K1)
Construct: purchased ThermoFisher Scientific PV4792
Sequence (Q9H0K1 whole entry): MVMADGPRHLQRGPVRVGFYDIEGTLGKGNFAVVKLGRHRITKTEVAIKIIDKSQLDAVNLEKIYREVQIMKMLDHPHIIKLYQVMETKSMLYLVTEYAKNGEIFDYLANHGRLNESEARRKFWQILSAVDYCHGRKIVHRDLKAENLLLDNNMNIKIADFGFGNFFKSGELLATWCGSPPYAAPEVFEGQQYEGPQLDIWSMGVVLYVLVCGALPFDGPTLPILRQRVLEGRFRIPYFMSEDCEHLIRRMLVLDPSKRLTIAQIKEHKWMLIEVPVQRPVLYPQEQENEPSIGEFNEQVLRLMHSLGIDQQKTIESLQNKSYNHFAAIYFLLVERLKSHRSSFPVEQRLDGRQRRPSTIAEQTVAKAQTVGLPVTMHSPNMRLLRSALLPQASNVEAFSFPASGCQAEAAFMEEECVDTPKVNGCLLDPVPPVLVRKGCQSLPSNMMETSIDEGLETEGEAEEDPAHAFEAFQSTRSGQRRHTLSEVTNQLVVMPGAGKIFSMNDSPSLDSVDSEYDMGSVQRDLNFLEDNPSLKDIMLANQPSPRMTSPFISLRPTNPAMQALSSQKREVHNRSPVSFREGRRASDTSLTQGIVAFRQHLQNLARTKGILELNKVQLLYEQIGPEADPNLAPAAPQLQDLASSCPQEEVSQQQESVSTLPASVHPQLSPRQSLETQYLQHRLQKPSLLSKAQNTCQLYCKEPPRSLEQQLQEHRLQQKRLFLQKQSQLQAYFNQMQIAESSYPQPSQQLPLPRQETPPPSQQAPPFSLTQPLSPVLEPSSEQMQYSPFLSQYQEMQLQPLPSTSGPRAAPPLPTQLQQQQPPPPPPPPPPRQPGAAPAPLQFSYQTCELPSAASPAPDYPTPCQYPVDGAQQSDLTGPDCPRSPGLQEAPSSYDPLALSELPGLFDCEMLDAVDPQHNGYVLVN
Assay: ADP-Glo kinase assay, SIK2
Assay type: biochemical
Value type: IC50

| Compound | IC50 |
| --- | --- |
| COc1cc(-c2cnc3cc(C4(C#N)COC4)ccn23)cnc1C(=O)NCC(F)(F)F | > 500 nM |
| COCC(C)(C)c1ccc2c(-c3cc(OC)c(C(=O)NC4CC4)c(OC(F)F)c3)cnn2c1 | > 500 nM |
| COc1cc(-c2cnc3cc(C(C)(C)N4CCOCC4)ccn23)cc(OC(F)F)c1C(=O)NC1CC1 | > 500 nM |
| COc1cc(-c2cnc3cc(C(C)(C)C#N)ccn23)cc(OC(F)F)c1C(=O)N1CC(F)C1 | > 500 nM |
| COc1cc(-c2cnc3cc(C4CN(C)C4)ccn23)cc(OC(F)F)c1C(=O)NC1CC1 | 100 to 500 nM |
| COc1cc(-c2cnc3cc(C(C)(C)OC)ccn23)cc(OC(F)F)c1C(=O)NC1CC1 | > 500 nM |
| COc1cc(-c2cnc3cc(C(C)(C)C#N)ccn23)cc(OC(F)F)c1C(=O)NCC1COC1 | > 500 nM |
| CCC(C)(O)c1ccn2c(-c3cc(OC)c(C(=O)NC4CC4)c(OC(F)F)c3)cnc2c1 (stereo not shown) | > 500 nM |

Now look at this entry.
# value of IC50, SIK2 (Homo sapiens, UniProt Q9H0K1), item COc1cc(-c2cnc3cc(C4CCCN4)ccn23)cc(OC(F)F)c1C(=O)NC1CC1 (stereo not shown) = 100 to 500 nM

----------
# IC50 per entry
Target: SIK2 (Homo sapiens)
Construct: purchased ThermoFisher Scientific PV4792
Assay: ADP-Glo kinase assay, SIK2
Type: biochemical

| Compound | Study target | Reported measurement |
| --- | --- | --- |
| COc1cc(-c2cnc3cc(C(C)N4CC(O)C4)ccn23)cc(OC(F)F)c1C(=O)NC1CC1 (centres unmarked) [Cpd 155] | SIK2 (Homo sapiens) | > 500 nM |

For this compound ( COc1cc(-c2cnc3cc(C(O)CC#N)ccn23)cc(OC(F)F)c1C(=O)NC1CC1 (centres unmarked) [Cpd 175] ), measured IC50 is 100 to 500 nM

For this compound ( COCCCNC(=O)c1c(OC)cc(-c2cnc3cc(C(C)(C)C#N)ccn23)cc1OC(F)F [Cpd 45] ), measured IC50 is > 500 nM

For this compound ( COc1cc(-c2cnc3cc(C4(CN5CCOCC5)CC4)ccn23)cc(OC(F)F)c1C(=O)NC1CC1 [Cpd 145] ), measured IC50 is > 500 nM

For this compound ( COc1cc(-c2cnc3cc(C4(C)CN(C)CCO4)ccn23)cc(OC(F)F)c1C(=O)NC1CC1 (centres unmarked) [Cpd 210] ), measured IC50 is > 500 nM

For this compound ( COC(=O)C(F)(F)c1ccn2c(-c3cc(OC)c(C(=O)NC4CC4)c(OC(F)F)c3)cnc2c1 [Cpd 131] ), measured IC50 is > 500 nM

For this compound ( COc1cc(-c2cnc3cc([C@@](C)(C#N)CO)ccn23)cc(OC(F)F)c1C(=O)NC1CC1 (single isomer, unassigned) [Cpd 189] ), measured IC50 is > 500 nM

For this compound ( COc1cc(-c2cnc3cc(C4COCCN4C)ccn23)cc(OC(F)F)c1C(=O)NC1CC1 (centres unmarked) [Cpd 193] ), measured IC50 is > 500 nM

For this compound ( COc1cc(-c2cnc3cc(C(C)(C)C#N)ccn23)cc(OC(F)F)c1C(=O)N1CC(F)(F)C1 [Cpd 69] ), measured IC50 is > 500 nM
